Where do these numbers come from? They come from ChEMBL document CHEMBL3988442.

Provide the reported Percent Effect of each item.
# Test system: Wolbachia pipientis
# Measurement protocol: Anti-Wolbachia Cell-Based Screen
# Format: functional
# Set-up: scale not given: in the data most compounds retested in dose-response had high values
# Conditions used: 5 µM
Among all 48,000 compounds or so, about 13,000 (27%) showed an effect of 50% or more. Some of the results follow.
Could you give me the number in %? Just the number is fine.

Log: Wolbachia pipientis, molecule "Cn1cc(NC(=O)CCc2ccsc2)ccc1=O" , Percent Effect = -1.148

Log: Wolbachia pipientis, molecule "N#CCCN(Cc1cccnc1)C(=O)c1ccn(-c2ccccc2)n1" , Percent Effect = 1.241

Log: Wolbachia pipientis, molecule "CS(=O)(=O)CCCOc1cccc(-n2cccn2)c1" , Percent Effect = -22.07

Log: Wolbachia pipientis, molecule "CN(CCOc1cccc(CNS(C)(=O)=O)c1)C1CCOCC1" , Percent Effect = -5.968

Log: Wolbachia pipientis, molecule O=C(c1ccoc1)N1CCCC1C1CCN(Cc2ccccc2)CC1 (stereo unspecified) , Percent Effect = -51.53

Log: Wolbachia pipientis, molecule COC1CCCOC12CCN(C(=O)c1ccc3[nH]nnc3c1)CC2 (stereo unspecified) , Percent Effect = 104.9

Log: Wolbachia pipientis, molecule O=C(c1ccc2c(c1)CCC2)N1CCCCC1C1OCCO1 (stereo unspecified) , Percent Effect = -21.29

Log: Wolbachia pipientis, molecule "Cc1cc(C(=O)Nc2nnn[nH]2)ccc1I" , Percent Effect = -9.005

Log: Wolbachia pipientis, molecule CC(NC(=O)CCc1nc(-c2nnc[nH]2)no1)c1ccc(F)cc1F (stereo unspecified) , Percent Effect = 1.12

Log: Wolbachia pipientis, molecule "CCNS(=O)(=O)c1ccc(C)c(C(=O)N(CCC#N)Cc2ccco2)c1" , Percent Effect = -4.86

Log: Wolbachia pipientis, molecule CCCOCC1CCN(C(=O)Cn2cccc(C(F)(F)F)c2=O)C1 (stereo unspecified) , Percent Effect = -13.09

Log: Wolbachia pipientis, molecule "CCc1cccc(CC(=O)NC2CCN(C(=O)NC(C)(C)C)CC2)c1" , Percent Effect = -13.61

Log: Wolbachia pipientis, molecule "O=C(NCCN1CCOCC1)c1n[nH]c(=O)c2ccccc12" , Percent Effect = 6.871

Log: Wolbachia pipientis, molecule CC(C)c1nc(CC(=O)N2CCCC(n3cncn3)C2)cs1 (stereo unspecified) , Percent Effect = -6.104

Log: Wolbachia pipientis, molecule COc1cccc(OCC2CCCN(C(=O)CCn3ccnc3)C2)c1 (stereo unspecified) , Percent Effect = -97.21

Log: Wolbachia pipientis, molecule CCc1noc(C2CCCCN2C(=O)c2ccn(C3CCCC3)n2)n1 (stereo unspecified) , Percent Effect = 52.74

Log: Wolbachia pipientis, molecule "CNC(=O)CCNC(=O)Nc1cccc(Cl)c1SC(F)F" , Percent Effect = -9.606

Log: Wolbachia pipientis, molecule CCCN1CCCC2(CCN(C(=O)CCCn3cncn3)C2)C1=O (stereo unspecified) , Percent Effect = -10.51

Log: Wolbachia pipientis, molecule "C[C@@H]1CN(C2CCN(Cc3nn(C)c4cccc(Cl)c34)CC2)C[C@H](C)O1" , Percent Effect = 24.58

Log: Wolbachia pipientis, molecule CCc1ccc(C(=O)N2CCC(O)(CN3CCOCC3)C(C)(C)C2)[nH]1 (stereo unspecified) , Percent Effect = -6.859

Log: Wolbachia pipientis, molecule Cc1ccc(=O)n(CC(=O)N2CCCC(c3nc(C)c(C)s3)C2)n1 (stereo unspecified) , Percent Effect = -3.398

Log: Wolbachia pipientis, molecule O=C(c1n[nH]c(=O)c2ccccc12)N1CCC(O)(CN2CCOCC2)C1 (stereo unspecified) , Percent Effect = 88.42

Log: Wolbachia pipientis, molecule O=C1C(NCc2nnc3n2CCCC3)CCN1CC(F)(F)F (stereo unspecified) , Percent Effect = -0.8085

Log: Wolbachia pipientis, molecule Cc1csc2c(C3CCCN(C(=O)CCn4ccnc4)C3)nc(C)n12 (stereo unspecified) , Percent Effect = 85.68

Log: Wolbachia pipientis, molecule "OCc1ccc(CN2CCC(n3cc(C4CCCCC4)nn3)CC2)o1" , Percent Effect = 0.3058

Log: Wolbachia pipientis, molecule "CS(=O)(=O)c1ccc(OCCNCc2cccc(F)c2)cc1" , Percent Effect = -4.841

Log: Wolbachia pipientis, molecule Cc1ccc(C(NC(=O)Cc2nc3ncccn3n2)C2CC2)cc1 (stereo unspecified) , Percent Effect = -15.47

Log: Wolbachia pipientis, molecule O=C(c1ccc(C2CCCO2)s1)N1CCN(c2ccccc2F)CC1 (stereo unspecified) , Percent Effect = 2.107

Log: Wolbachia pipientis, molecule Cc1csc2c(C3CCCN(C(=O)CCCn4cncn4)C3)nc(C)n12 (stereo unspecified) , Percent Effect = 105.3

Log: Wolbachia pipientis, molecule "COc1cccc(S(=O)(=O)CCN2CCN(CC(F)F)CC2)c1" , Percent Effect = 1.442

Log: Wolbachia pipientis, molecule CCc1noc(C2CCCCN2C(=O)c2ccccc2)n1 (stereo unspecified) , Percent Effect = 1.293

Log: Wolbachia pipientis, molecule "O=C(c1ccc2[nH]nnc2c1)N1CC[C@H](O)[C@]2(CCCO2)C1" , Percent Effect = 85.31

Log: Wolbachia pipientis, molecule "Cc1csc(N2CCN(C(=O)CCC(=O)c3ccc(C)s3)CC2)n1" , Percent Effect = 7.228

Log: Wolbachia pipientis, molecule "O=C(c1ccc2c(c1)CCC2)N1CC[C@H](O)[C@]2(CCCO2)C1" , Percent Effect = 143.9

Log: Wolbachia pipientis, molecule Cc1nc(C)n(CC(=O)N2CCCC(c3nc(C)n4c(C)csc34)C2)n1 (stereo unspecified) , Percent Effect = 71.32

Log: Wolbachia pipientis, molecule "c1ccc(-c2cc(CN3C[C@@H]4CC[C@H](C3)N(CC3CC3)C4)on2)cc1" , Percent Effect = 2.507

Log: Wolbachia pipientis, molecule "O=C(c1ccc2[nH]nnc2c1)N1C[C@H](O)[C@]2(CCCO2)C1" , Percent Effect = 107.9

Log: Wolbachia pipientis, molecule "O=C(COc1cccnc1)NCc1nncn1C1CCCCC1" , Percent Effect = -1.054

Log: Wolbachia pipientis, molecule CCCC(Cn1cnc(-c2ccccc2)c1-c1cncn1CC)N(C)C (stereo unspecified) , Percent Effect = 8.465

Log: Wolbachia pipientis, molecule "Cc1ccsc1[C@@H]1CCN(C(=O)CCCn2cncn2)C[C@H]1O" , Percent Effect = 10.3

Log: Wolbachia pipientis, molecule "CN(CCOc1cccc(S(C)(=O)=O)c1)c1ccccc1" , Percent Effect = 88.15

Log: Wolbachia pipientis, molecule CNc1nc(N2CCC3(CCCNC3=O)C2)nc2c1CCC2 (stereo unspecified) , Percent Effect = -0.1969

Log: Wolbachia pipientis, molecule "CCc1cnc(N2C[C@H]3CN(Cc4csc(C)n4)C(=O)[C@H]3C2)nc1.O=C(O)C(F)(F)F" , Percent Effect = -9.51

Log: Wolbachia pipientis, molecule "O=C(C1CC1)N1CCC(c2nc(-c3ccccc3)n[nH]2)CC1" , Percent Effect = -8.829

Log: Wolbachia pipientis, molecule "CC(=O)Nc1nc(COc2nc(C)no2)cs1" , Percent Effect = -3.939

Log: Wolbachia pipientis, molecule "CO[C@H]1CCN(C(=O)c2ccc3[nH]nnc3c2)C[C@@]12CCCO2" , Percent Effect = 102.9
